testMethodNotes: Inhibition of bacterial NDM-1 (1 to 270 residues) expressed in Escherichia coli Transetta (DE3) using FC-5 as substrate preincubated with enzyme for 10 mins followed by substrate addition by fluorescence based analysis
Set-up: species or system Bacteria
pIC50: −log10 of the molar value.
assayEndpoint: pIC50

See these solved cases before continuing.
COc1ccc(Cn2ccnc2C(=O)O)cc1	3.80
O=C(O)c1nccn1Cc1ccc(C(F)(F)F)cc1	< 3.52
CCn1ccnc1C(=O)O	< 3.52
C=CCn1ccnc1C(=O)O	< 3.52

Input: Give pIC50 for O=C(O)c1nccn1Cc1ccccc1
Output: 4.20

Input: Give pIC50 for O=C(O)c1nccn1Cc1ccc(Cl)s1
Output: 3.92

Input: Give pIC50 for O=C(O)c1nccn1Cc1ccoc1
Output: < 3.52

Input: Give pIC50 for NCCn1ccnc1C(=O)O
Output: < 3.52

====

testMethodNotes: Inhibition of bacterial VIM-2 (27 to 266 residues) expressed in Escherichia coli Transetta (DE3) using FC-5 as substrate preincubated with enzyme for 10 mins followed by substrate addition by fluorescence based analysis
Parameters: species or system Bacteria
assayEndpoint: IC50

See these solved cases before continuing.
Nn1ccnc1C(=O)O	> 300 µM
CN(C)CCCn1ccnc1C(=O)O	> 300 µM

Next up:
Input: Give IC50 for CN(C)CCn1ccnc1C(=O)O
Output: > 300 µM

====

testMethodNotes: Inhibition of bacterial NDM-1 (1 to 270 residues) expressed in Escherichia coli Transetta (DE3) using FC-5 as substrate preincubated with enzyme for 10 mins followed by substrate addition by fluorescence based analysis
Design: species or system Bacteria
Overview of recorded IC50 for various molecules

See these solved cases before continuing.
O=C(O)c1nccn1Cc1ccsc1	> 300 µM
N#CCCCn1ccnc1C(=O)O	> 300 µM

Input: Give IC50 for CSCn1ccnc1C(=O)O
Output: > 300 µM

Input: Give IC50 for CCCn1ccnc1C(=O)O
Output: > 300 µM

Input: Give IC50 for O=C(O)c1nccn1Cc1cc(Br)cs1
Output: 111 µM

Input: Give IC50 for C=CCCn1ccnc1C(=O)O
Output: > 300 µM

Input: Give IC50 for Nc1nc2ccc(Cn3ccnc3C(=O)O)cc2s1
Output: 178 µM

Input: Give IC50 for COCCn1ccnc1C(=O)O
Output: > 300 µM

Input: Give IC50 for Cc1ccc(Cn2ccnc2C(=O)O)cc1
Output: > 300 µM

Input: Give IC50 for CN(C)CCCn1ccnc1C(=O)O
Output: > 300 µM

Input: Give IC50 for O=C(O)c1ncc(C2CC2)n1Cc1ccccc1
Output: 34.1 µM

Input: Give IC50 for CC(C)n1ccnc1C(=O)O
Output: > 300 µM

Input: Give IC50 for O=C(O)c1nccn1C1CCCC1
Output: > 300 µM

Input: Give IC50 for CN(C)CCn1ccnc1C(=O)O
Output: > 300 µM

Input: Give IC50 for NCCCn1ccnc1C(=O)O
Output: > 300 µM

Input: Give IC50 for Nc1ccc(Cn2ccnc2C(=O)O)cc1
Output: > 300 µM

Input: Give IC50 for Nc1nc2c(Cn3ccnc3C(=O)O)cccc2s1
Output: 131 µM

Input: Give IC50 for O=C(O)c1ncc(-c2ccccc2)n1Cc1ccccc1
Output: 59.2 µM

====

testMethodNotes: Inhibition of bacterial NDM-1 (1 to 270 residues) expressed in Escherichia coli Transetta (DE3) using FC-5 as substrate preincubated with enzyme for 10 mins followed by substrate addition by fluorescence based analysis
Parameters: species or system Bacteria
pIC50: −log10 of the molar value.
Overview of recorded pIC50 for various compounds

See these solved cases before continuing.
NC(=O)Cn1ccnc1C(=O)O	< 3.52
CC(O)Cn1ccnc1C(=O)O (stereo not drawn)	< 3.52

Next up:
Input: Give pIC50 for O=C(O)c1nccn1Cc1ccco1
Output: < 3.52

Source: ChEMBL document CHEMBL5154646
